- Test system: SK-OV-3 ovarian
- method-notes: NCI-60 one-dose screen, 48 h
- condition-details: 10 µM unless noted
The panel holds about 83,000 compounds, 20% with a hit somewhere; the sample as a whole holds those more often. Active and inactive are the calls of the source. The calls were made as follows: active = growth percent below 10; inactive = the rest.
Respond using exactly one of the listed classes: Yes = active, No = inactive

Prompt: Look up the recorded call for O=c1[nH]c2ccc(Br)cc2c2c1C(c1ccc(Cl)cc1)c1c(ncn3nc(-c4ccco4)nc13)O2 (stereo not given) in this test.
Response: No

Prompt: What outcome does the record of this test show for COc1ccc(-c2nc(SCCC(C)C)nc(Nc3ccc(F)c(Cl)c3)c2C#N)cc1 ?
Response: No

Prompt: Could you please tell me the result logged for COc1cccc(-c2nc3sccn3c2-c2ccnc(NCCCNS(=O)(=O)c3ccc(F)cc3)c2)c1 in this assay?
Response: No

Prompt: Kindly provide the recorded test outcome for the following compound: CN(C)CCN1C(=O)c2ccc3c4c(ccc(c24)C1=O)C(=O)N(CCN=C=S)C3=O
Response: Yes

Prompt: What did the test return for CC(=O)Nc1ccc(/C=C/C(=O)c2ccccc2)cc1 ?
Response: No

Prompt: Which outcome was assigned to Cc1ccc(S(=O)(=O)NCCNc2nccc(-c3c(-c4cccc(N)c4)nc4sccn34)n2)cc1 in this test?
Response: No

Prompt: Given COc1ccc2c(c1)NC1=C(C(=O)OC1)C2c1cc(OC)c2c(c1)OCO2 (stereo not given) , state the outcome it received in this test.
Response: No

Prompt: Call for entry CC1CCC(C)N(C)C1 (stereo not given) :
Response: No

Prompt: Query: recorded result category for N#Cc1ccc(N2Cc3ccccc3OC3=C2C(=O)c2c(O)ccc(O)c2C3=O)cc1 in this test
Response: No

Prompt: For CC[N+](CC)=c1cc2oc3cc(N(C)C)ccc3nc-2cc1C , which call appears in the assay record?
Response: No

====

Kindly state growth for each of the entries shown.
- Test system: COLO 205 colon
- method-notes: NCI-60 one-dose screen, 48 h (100 = growth as untreated, 0 = no growth, -100 = all killed)
- condition-details: 10 µM unless noted
Compounds without any hit were thinned out: in the full panel of roughly 83,000, 20% have a hit.
Please respond with the number in % and leave the unit unwritten.

Prompt: Let me know recorded growth for C[n+]1c(/C=C/c2c(O)ccc3ccccc23)ccc2ccccc21 , thanks.
Response: 25.3

Prompt: Indicate the recorded growth value for this molecule: O=C(c1ccccc1)C1OC1c1ccc([N+](=O)[O-])cc1 (stereo not given)
Response: 112

Prompt: Indicate its recorded growth; the molecule in question is COc1ccc2c(c1)cn1c3ccc(OC)cc3[nH]c(=O)c21
Response: -61.3

Prompt: Give the measured growth for COc1ccc(/C(C#N)=C/c2cc(OC)c(OC)c(OC)c2)cc1
Response: 24.3

Prompt: Fill in reported growth for this entry: CC(=O)Nc1ccc(S(=O)(=O)n2ccc(-c3ccc4c(c3)CCC(C)(C)O4)n2)cc1
Response: 88.8

Prompt: Return value of growth for input Cc1nc2cncc(C#Cc3cncc(C(=O)Nc4ccc(CN5CCN(C)CC5)c(C(F)(F)F)c4)c3)c2nc1C , no commentary.
Response: -12.3

Prompt: Check the records and state growth for Cc1c(C(N)=O)sc2c1c(=O)n(Cc1ccccc1)c1nnc(Nc3ccccc3)n21
Response: 101

Prompt: For the molecule CCCCCCN1CSC(=S)N(CCCCCC)C1 , report growth.
Response: 106

Prompt: Look up and report measured growth for this entry: COc1cc(-c2nc(-c3nc4ccc(Cl)cc4[nH]3)cc3c2[nH]c2ccccc23)cc(OC)c1OC
Response: 84.6

Prompt: For the molecule COc1cc(NC(N)=NCCC(C)(C)Oc2ccc(C(F)(F)F)cc2)ncc1C#N , give its reported growth.
Response: -87.8

Prompt: Respond only with growth recorded for Cc1ccc(-c2cc3nc(-c4ccccc4)nc(C(Cl)Cl)n3n2)cc1
Response: -66.1

Prompt: Output growth of CCOC(=O)CC(=O)OC
Response: 101

Prompt: Fill in reported growth for this entry: O=[N+]([O-])c1ccc(-c2cn(-c3ccccc3)c(-c3ccccc3)n2)cc1
Response: 101

Prompt: Tell us which growth value is on record for N#Cc1c(-c2ccccc2)cc(-c2ccccc2)n(CC(=O)NO)c1=O
Response: 58.6

Prompt: Return value of growth for input Cc1ccc(-c2csc(NC(=O)CCCCl)n2)cc1 , no commentary.
Response: 112

Prompt: State, in one line, measured growth of COc1ccccc1CNCCCN1C(=O)c2ccc3c4c(ccc(c24)C1=O)C(=O)N(CCCNCCCCNCCCN)C3=O
Response: -78.9

Prompt: Identify measured growth associated with COc1cc(Nc2ncccc2C(=O)NCc2cn(Cc3cccc(Oc4ccccc4)c3)nn2)cc(OC)c1
Response: 38.3

Prompt: Give the reported value of growth for this record: Cc1ccc(S(=O)(=O)/C(=C\c2ccc(Cl)cc2)C(=O)c2ccccc2)cc1
Response: 102

Prompt: Supply measured growth of COc1ccc(/C=C\c2cc(OC)c(OC)c(OC)c2)cc1OC(=O)c1cccc(Cn2cc(CCOC(=O)c3cccc(Cn4nnc5c4C(=O)c4ccccc4C5=O)c3)nn2)c1 in your reply.
Response: -25.2

Prompt: Give the measured growth for C=C[C@@H]1C[C@H](O)Cc2c(C)cc(C)cc2N1
Response: 106
